Target: rh integrin α4β7 (R&D Systems #5397-A30) (human) (UniProt P13612)
Experiment: competition ELISA vs MAdCAM-1
pIC50: −log10 of the molar value. Bridge positions count the residues as written; N and C are the ends. Square brackets hold non-standard residues; d marks the D form. Ends that are not written are not given here. 1Nal = N[C@@H](Cc1cccc2ccccc12)C(=O)O; 2Nal = N[C@@H](Cc1ccc2ccccc2c1)C(=O)O; NMeR = CN[C@@H](CCCNC(=N)N)C(=O)O; β3hE = N[C@@H](CCC(=O)O)CC(=O)O; Aic = NC1(C(=O)O)Cc2ccccc2C1; Pen = CC(C)(S)[C@H](N)C(=O)O; dNMeK = CN[C@H](CCCCN)C(=O)O
Parameter: pIC50

Some entries whose results are on file:
binder="Ac-[Pen][NMeR]SDTL[Pen]W[Aic][dK]-NH2 (disulfide 1-7; SMILES CC(=O)N[C@@H]1C(=O)N(C)[C@@H](CCCNC(=N)N)C(=O)N[C@@H](CO)C(=O)N[C@@H](CC(=O)O)C(=O)N[C@@H]([C@@H](C)O)C(=O)N[C@@H](CC(C)C)C(=O)N[C@H](C(=O)N[C@@H](Cc2c[nH]c3ccccc23)C(=O)NC2(C(=O)N[C@H](CCCCN)C(N)=O)Cc3ccccc3C2)C(C)(C)SSC1(C)C) [SEQ ID NO: 51]" result="< 7.60"
binder="Ac-[Pen][NMeR]SDTL[Pen][2Nal][β3hE][dK]-NH2 (disulfide 1-7 (inferred); also: homodimer via DIG) [SEQ ID NO: 137]" result="> 8.00"
binder="Ac-[Pen][NMeR]SDTL[Pen][1Nal]E[dNMeK]-NH2 (disulfide 1-7; also: dimer via DIG) [SEQ ID NO: 44]" result="> 8.00"
binder="[Pen][NMeR]SDTL[Pen][2Nal]E (disulfide 1-7 (inferred); not fully specified (bridges); printed as Cyclo-[Pen-N-Me-R-S-D-T-L-Pen-2-Nal-E], Pen-Pen disulfide) [SEQ ID NO: 143]" result=6.60
binder="Ac-[Pen][NMeR]SDTL[Pen][1Nal][dE][dK]-NH2 (disulfide 1-7; SMILES CC(=O)N[C@@H]1C(=O)N(C)[C@@H](CCCNC(=N)N)C(=O)N[C@@H](CO)C(=O)N[C@@H](CC(=O)O)C(=O)N[C@@H]([C@@H](C)O)C(=O)N[C@@H](CC(C)C)C(=O)N[C@H](C(=O)N[C@@H](Cc2cccc3ccccc23)C(=O)N[C@H](CCC(=O)O)C(=O)N[C@H](CCCCN)C(N)=O)C(C)(C)SSC1(C)C) [SEQ ID NO: 8]" result="< 7.60"

Next binder, pIC50 to be filled in.
Reported pIC50 for Ac-[Pen][NMeR]SDTL[Pen][2Nal][dK]-NH2 (disulfide 1-7; SMILES CC(=O)N[C@@H]1C(=O)N(C)[C@@H](CCCNC(=N)N)C(=O)N[C@@H](CO)C(=O)N[C@@H](CC(=O)O)C(=O)N[C@@H]([C@@H](C)O)C(=O)N[C@@H](CC(C)C)C(=O)N[C@H](C(=O)N[C@@H](Cc2ccc3ccccc3c2)C(=O)N[C@H](CCCCN)C(N)=O)C(C)(C)SSC1(C)C) [SEQ ID NO: 88] : what is it?
< 8.00

Source listed as patent US20180148477A1.
